Tested on: CHL-1 (Melanoma);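 also: after 72 h of two-drug dosing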
Assay: Bliss excess, mean over the matrix (fraction); higher = more synergy
Assign satisfied whenever Bliss excess does not fall below -0.003; assign not satisfied whenever it does.

Quick check: does Cc1c2c(nn1C)CSCc1cc(n(C)n1)CSc1cc(c3ccccc3c1)OCCCc1c(C(=O)O)n(C)c3c-2c(Cl)ccc13 [AZD5991] + Cn1cnc2c(F)c(Nc3ccc(Br)cc3Cl)c(C(=O)NOCCO)cc21 [Selumetinib] (first compound max 1 µM, 7x7, partner max 3 µM) have Bliss excess greater than or equal to -0.003?
not satisfied

Quick check: does CC1(C)CCC(CN2CCN(c3ccc(C(=O)NS(=O)(=O)c4ccc(NCC5CCOCC5)c([N+](=O)[O-])c4)c(Oc4cnc5[nH]ccc5c4)c3)CC2)=C(c2ccc(Cl)cc2)C1 [Venetoclax] + C=CCn1c(=O)c2cnc(Nc3ccc(N4CCN(C)CC4)cc3)nc2n1-c1cccc(C(C)(C)O)n1 [AZD1775] (first compound max 1 µM, partner max 1 µM) have Bliss excess greater than or equal to -0.003?
satisfied

Quick check: does CS(=O)(=O)CCNCc1ccc(-c2ccc3ncnc(Nc4ccc(OCc5cccc(F)c5)c(Cl)c4)c3c2)o1 [Lapatinib] + C[C@@H](Oc1cc(-c2cnn(C3CCNCC3)c2)cnc1N)c1c(Cl)ccc(F)c1Cl [Crizotinib] (first compound max 10 µM, 7x7, partner max 10 µM) have Bliss excess greater than or equal to -0.003?
not satisfied

Quick check: does Cn1cnc2c(F)c(Nc3ccc(Br)cc3Cl)c(C(=O)NOCCO)cc21 [Selumetinib] + C[C@@H]1COCCN1C2=NC(=NC(=C2)C3(CC3)[S@](=N)(=O)C)C4=C5C=CNC5=NC=C4 [AZD6738] (first compound max 10 µM, 7x7, partner max 10 µM) have Bliss excess greater than or equal to -0.003?
not satisfied

Quick check: does COc1cc2c(cc1OCCCCCOc1cc3c(cc1OC)C(=O)N1C=C(C)C[C@H]1C=N3)N=C[C@@H]1CC(C)=CN1C2=O [SG3199] + O=C(c1cc(Cc2n[nH]c(=O)c3ccccc23)ccc1F)N1CCN(C(=O)C2CC2)CC1 [Olaparib] (first compound max 0.001 µM, 7x7, partner max 10 µM) have Bliss excess greater than or equal to -0.003?
not satisfied

Quick check: does CC1(C)CCC(CN2CCN(c3ccc(C(=O)NS(=O)(=O)c4ccc(NCC5CCOCC5)c([N+](=O)[O-])c4)c(Oc4cnc5[nH]ccc5c4)c3)CC2)=C(c2ccc(Cl)cc2)C1 [Venetoclax] + CN(C)CCCOc1ccc(-c2ccc3ncc4c(c3c2)n(C2CCOCC2)c(=O)n4C)cn1 [AZD0156] (first compound max 1 µM, 7x7, partner max 1 µM) have Bliss excess greater than or equal to -0.003?
satisfied

Quick check: does C[C@@H](Nc1cc(F)cc(F)c1)c1cc(C(=O)N(C)C)cc2c(=O)cc(N3CCOCC3)oc12 [AZD8186] + CC(=O)c1c(C)c2cnc(Nc3ccc(N4CCNCC4)cn3)nc2n(C2CCCC2)c1=O [Palbociclib] (first compound max 10 µM, 7x7, partner max 10 µM) have Bliss excess greater than or equal to -0.003?
satisfied
